IC50: recorded values
# target.or.system: UniProt:Q96QP1
# Sequence (Q96QP1 whole entry): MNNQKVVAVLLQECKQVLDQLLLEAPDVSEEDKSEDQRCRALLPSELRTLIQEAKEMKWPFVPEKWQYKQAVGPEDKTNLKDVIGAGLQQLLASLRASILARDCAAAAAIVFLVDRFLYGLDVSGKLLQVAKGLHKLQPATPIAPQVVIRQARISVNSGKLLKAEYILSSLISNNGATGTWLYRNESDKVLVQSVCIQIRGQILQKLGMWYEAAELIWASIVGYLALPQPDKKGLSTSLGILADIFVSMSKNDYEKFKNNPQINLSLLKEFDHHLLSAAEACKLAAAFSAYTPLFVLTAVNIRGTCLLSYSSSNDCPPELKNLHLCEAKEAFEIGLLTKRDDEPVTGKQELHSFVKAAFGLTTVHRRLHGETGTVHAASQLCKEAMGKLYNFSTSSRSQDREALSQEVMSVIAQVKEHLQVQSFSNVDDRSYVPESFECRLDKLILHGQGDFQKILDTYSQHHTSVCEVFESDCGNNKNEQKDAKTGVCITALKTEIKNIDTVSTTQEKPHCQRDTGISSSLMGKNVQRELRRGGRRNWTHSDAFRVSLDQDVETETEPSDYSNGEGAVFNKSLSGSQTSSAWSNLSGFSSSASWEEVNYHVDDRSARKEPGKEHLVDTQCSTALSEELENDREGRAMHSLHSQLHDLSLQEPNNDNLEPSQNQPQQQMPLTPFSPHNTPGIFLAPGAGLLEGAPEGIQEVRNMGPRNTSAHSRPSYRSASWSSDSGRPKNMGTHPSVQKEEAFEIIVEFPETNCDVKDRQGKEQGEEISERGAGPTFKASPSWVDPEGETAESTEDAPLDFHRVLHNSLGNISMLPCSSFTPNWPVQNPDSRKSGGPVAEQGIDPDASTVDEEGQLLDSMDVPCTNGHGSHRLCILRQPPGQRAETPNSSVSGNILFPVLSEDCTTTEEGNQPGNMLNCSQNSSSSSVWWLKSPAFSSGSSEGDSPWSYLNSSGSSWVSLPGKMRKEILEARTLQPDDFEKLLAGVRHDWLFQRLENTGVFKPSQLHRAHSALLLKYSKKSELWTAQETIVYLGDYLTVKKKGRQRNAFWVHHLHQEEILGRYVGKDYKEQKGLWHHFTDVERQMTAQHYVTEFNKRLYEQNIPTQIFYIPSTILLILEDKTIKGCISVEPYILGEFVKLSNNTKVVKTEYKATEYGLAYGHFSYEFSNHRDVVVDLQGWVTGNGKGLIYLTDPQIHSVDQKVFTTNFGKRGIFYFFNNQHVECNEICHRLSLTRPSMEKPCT
# test: ALPK1 in vitro kinase assay (HTRF, TIFA phosphorylation)
# Assay type: biochemical
# condition.info: ADP-Heptose activated ALPK1
Just the number in nM, nothing appended.

Consider the worked cases shown below.
1) C#Cc1cccc2sc(NC(=O)c3c(Cl)cc(N4CCNCC4)cc3Cl)nc12 : 9
2) O=C(Nc1nc2c(O)cccc2s1)c1c(F)cc(N2CCNCC2)cc1F : 1650
3) COc1cccc2sc(NC(=O)c3c(F)cc(NCCN(C)C)cc3F)nc12 : 507

IC50 for "CCN1CCN(c2cc(F)c(C(=O)Nc3nc4c(OC)cccc4s3)c(F)c2)CC1" is 131
